Target: human GPR84 (Homo sapiens, UniProt Q9NQS5)
Construct: CHO-hGPR84)
Sequence (Q9NQS5 whole entry): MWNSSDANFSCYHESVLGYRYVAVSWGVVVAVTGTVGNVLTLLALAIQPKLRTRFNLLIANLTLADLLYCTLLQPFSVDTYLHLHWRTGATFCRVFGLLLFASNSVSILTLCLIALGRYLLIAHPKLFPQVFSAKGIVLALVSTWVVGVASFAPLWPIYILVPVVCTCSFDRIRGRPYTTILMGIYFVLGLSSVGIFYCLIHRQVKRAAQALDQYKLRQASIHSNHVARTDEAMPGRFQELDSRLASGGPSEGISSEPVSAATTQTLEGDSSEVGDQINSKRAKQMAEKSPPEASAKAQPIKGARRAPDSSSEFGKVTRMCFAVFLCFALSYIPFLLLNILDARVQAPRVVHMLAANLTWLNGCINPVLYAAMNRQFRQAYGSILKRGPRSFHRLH
Experiment: cAMP accumulation assay in CHO cells expressing human GPR84
Format: cell-based
Details: read-out: cAMP Assay EC50 ± SD
pEC50: −log10 of the molar value.
For each entry below, report its pEC50 value.

Compound	pEC50
CCCCCC[C@H]1C[C@H]1CCCC(=O)O (relative stereo) [Compound 1, cis-4-(2-hexylcyclopropyl)-butanoic acid]	< 4.00

Required: pEC50, one value per compound below.
1. CCCCCC[C@H]1C[C@H]1CC(=O)O (relative stereo) [Compound 2, cis-2-(2-hexylcyclopropyl)-acetic acid]
2. CCCCCCCCCCCC(=O)O [Dodecanoic acid, reference compound]

1. < 4.00
2. 5.05

This collection of values is drawn from paper PMC6213206.
